Recorded values, source patent US10543212B2.

# experimental-target: Full-length, GST-tagged, human CaMKIIδ (Homo sapiens)
# Construct: Full-Length, Glutathione-S-Transferase(GST)-Tagged, Human CaMKIIδ was purchased from Carna Biosciences; purchased Carna Biosciences 02-111
# method-notes: CaMKIIδ binding assay (TR-FRET with BODIPY-labeled probe ligand)
# condition-details: CaMKIIδ binding assay, results of Table 2
measured-parameter: IC50

Examples from the recorded data:
molecule: COc1cc(C2CCN(C3COC3)CC2)c(C)cc1Nc1ncc(-c2ccc(C#N)c(O[C@@H](C)Cn3cnnn3)c2)cn1
experimental-target: Full-length, GST-tagged, human CaMKIIδ (Homo sapiens)
measured-result: < 0.01 µM
//
molecule: C[C@@H](Cn1cnnn1)Oc1cc(-c2cnc(Nc3cn(C4CCN(Cc5cc[nH]n5)CC4)nc3C(F)(F)F)nc2)ccc1Cl
experimental-target: Full-length, GST-tagged, human CaMKIIδ (Homo sapiens)
measured-result: < 0.01 µM
//
molecule: C[C@@H](Cn1cnnn1)Oc1cc(-c2cnc(Nc3cn(C4CCN(C5CCN(C6CC6)CC5)CC4)nc3C(F)(F)F)nc2)ccc1Cl
experimental-target: Full-length, GST-tagged, human CaMKIIδ (Homo sapiens)
measured-result: < 0.01 µM

With those in mind, consider the next molecule.
**Query** IC50 lookup needed for `COc1cc2c(cc1Nc1ncc(-c3ccc(Cl)c(O[C@@H](C)Cn4cnnn4)c3)cn1)CCN(C1CCOCC1)C2` , thanks.
**Result** < 0.01 µM

---

# experimental-target: Full-length, GST-tagged, human CaMKIIδ (Homo sapiens)
# Construct: Full-Length, Glutathione-S-Transferase(GST)-Tagged, Human CaMKIIδ was purchased from Carna Biosciences; purchased Carna Biosciences 02-111
# method-notes: CaMKIIδ binding assay (TR-FRET with BODIPY-labeled probe ligand)
# condition-details: CaMKIIδ binding assay, results of Table 2
measured-parameter: IC50

compound: COC1CCCCC1N1CCC(n2cc(Nc3ncc(-c4ccc(Cl)c(O[C@@H](C)Cn5cnnn5)c4)cn3)c(C(F)(F)F)n2)CC1 (stereo partly shown)
measured-parameter: IC50
measured-result: < 10 nM

compound: C[C@@H](Cn1cnnn1)Oc1cc(-c2cnc(Nc3cc4c(cc3Cl)CCN(C3COC3)CC4)nc2)ccc1Cl
measured-parameter: IC50
measured-result: < 10 nM

compound: C[C@@H](Cn1cnnn1)Oc1cc(-c2cnc(Nc3cn(CC4CCN(C5COC5)C4)nc3C(F)(F)F)nc2)ccc1Cl (stereo partly shown)
measured-parameter: IC50
measured-result: < 10 nM

With those in mind, consider the next compound.
**Query** IC50 lookup needed for `C[C@@H](Cn1cnnn1)Oc1cc(-c2cnc(Nc3cn(C4CCN(C5COC5)CC4)nc3C(F)(F)F)nc2)ccc1Cl` , thanks.
**Result** 10 to 100 nM

---

# experimental-target: Full-length, GST-tagged, human CaMKIIδ (Homo sapiens)
# Construct: Full-Length, Glutathione-S-Transferase(GST)-Tagged, Human CaMKIIδ was purchased from Carna Biosciences; purchased Carna Biosciences 02-111
# method-notes: CaMKIIδ binding assay (TR-FRET with BODIPY-labeled probe ligand)
# condition-details: Table 2; CaMKIIδ binding assay, activity given as class A/B/C
measured-parameter: IC50

molecule: C[C@@H](Cn1cnnn1)Oc1cc(-c2cnc(Nc3cn(C4CC5(C4)CN(CC(C)(C)O)C5)nc3C(F)(F)F)nc2)ccc1Cl [Example 859]
IC50: < 10 nM
//
molecule: C[C@@H](Cn1cnnn1)Oc1cc(-c2cnc(Nc3ccnn3-c3ccccc3)nc2)ccc1Cl [Example 754]
IC50: 10 to 100 nM
//
molecule: C[C@@H](Cn1cnnn1)Oc1cc(-c2cnc(Nc3cn([C@H]4CC[C@@H](N5CCOCC5)CC4)nc3OCC(F)F)nc2)ccc1F [Example 834]
IC50: 10 to 100 nM
//
molecule: C[C@@H](Cn1cnnn1)Oc1cc(-c2cnc(Nc3cn([C@H]4CC[C@H](N5CCOCC5)CC4)nc3C(F)(F)F)nc2)ccc1F [Example 808]
IC50: < 10 nM
//
molecule: COc1ncc(N2CCN(C3CCOCC3)CC2)cc1Nc1ncc(-c2ccc(Cl)c(O[C@@H](C)Cn3cnnn3)c2)cn1 [Example 770]
IC50: < 10 nM

**Query** Tell me reported IC50 for C[C@@H](Cn1cnnn1)Oc1cc(-c2cnc(Nc3cn(CCN)nc3C(F)(F)F)nc2)ccc1Cl [Example 877] , tested with Full-length, GST-tagged, human CaMKIIδ (Homo sapiens).
**Result** < 10 nM

**Query** Next entry: Cc1ccc(-c2cnc(Nc3cn(C4CCN(C5CCOCC5)CC4)nc3OCC(F)(F)F)nc2)cc1O[C@@H](C)Cn1cnnn1 [Example 788]
**Result** < 10 nM

**Query** Next entry: Cc1cc(Nc2ncc(-c3ccc(Cl)c(O[C@@H](C)Cn4cnnn4)c3)cn2)n(CCC#N)n1 [Example 746]
**Result** ≥ 100 nM

**Query** Next entry: C[C@@H](Cn1cnnn1)Oc1cc(-c2cnc(Nc3cn(C4CCCC4)nc3C(F)(F)F)nc2)ccc1Cl [Example 739]
**Result** 10 to 100 nM

**Query** Next entry: COCC(C)n1cc(Nc2ncc(-c3ccc(Cl)c(O[C@@H](C)Cn4cnnn4)c3)cn2)c(OCC(F)(F)F)n1 (stereo partly drawn) [Example 776]
**Result** < 10 nM

**Query** Next entry: C[C@@H](Cn1cnnn1)Oc1cc(-c2cnc(Nc3ncc(CO)n3C)nc2)ccc1Cl [Example 750]
**Result** ≥ 100 nM

---

Overview of recorded pIC50 for various compounds
# experimental-target: Full-length, GST-tagged, human CaMKIIδ (Homo sapiens, UniProt Q13557)
# Construct: Full-Length, Glutathione-S-Transferase(GST)-Tagged, Human CaMKIIδ was purchased from Carna Biosciences; purchased Carna Biosciences 02-111
# Sequence (Q13557 1-478 isoform Q13557-12): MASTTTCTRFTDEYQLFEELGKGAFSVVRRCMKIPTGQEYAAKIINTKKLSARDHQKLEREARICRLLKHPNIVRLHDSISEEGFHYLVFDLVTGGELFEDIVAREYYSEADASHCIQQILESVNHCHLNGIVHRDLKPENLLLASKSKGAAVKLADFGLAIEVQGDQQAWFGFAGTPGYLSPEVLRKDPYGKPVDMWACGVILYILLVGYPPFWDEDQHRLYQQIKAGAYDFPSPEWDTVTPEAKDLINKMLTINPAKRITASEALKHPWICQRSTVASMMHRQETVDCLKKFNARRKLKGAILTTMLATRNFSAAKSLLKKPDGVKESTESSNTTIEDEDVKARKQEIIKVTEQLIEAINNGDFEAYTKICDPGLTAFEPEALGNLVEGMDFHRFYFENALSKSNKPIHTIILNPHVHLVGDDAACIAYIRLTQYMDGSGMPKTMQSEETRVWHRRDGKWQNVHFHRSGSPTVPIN
# method-notes: CaMKIIδ binding assay (TR-FRET with BODIPY-labeled probe ligand)
# condition-details: CaMKIIδ binding assay, results of Table 2
pIC50: −log10 of the molar value.

Examples from the recorded data:
compound: C[C@@H](Cn1cnnn1)Oc1cc(-c2cnc(Nc3cn(C4CCN(Cc5cnn(C)c5)CC4)nc3C(F)(F)F)nc2)ccc1Cl
experimental-target: Full-length, GST-tagged, human CaMKIIδ (Homo sapiens, UniProt Q13557)
pIC50: > 8.00
--
compound: COc1cc2c(cc1Nc1ncc(-c3ccc(Cl)c(O[C@@H](C)Cn4cnnn4)c3)cn1)CN(C(=O)C(C)(C)O)CC2
experimental-target: Full-length, GST-tagged, human CaMKIIδ (Homo sapiens, UniProt Q13557)
pIC50: 7.00 to 8.00
--
compound: COc1cc2c(cc1Nc1ncc(-c3ccc(Cl)c(O[C@@H](C)Cn4cnnn4)c3)cn1)CN(C(=O)C(C)(C)OC(C)=O)CC2
experimental-target: Full-length, GST-tagged, human CaMKIIδ (Homo sapiens, UniProt Q13557)
pIC50: ≤ 7.00
--
compound: COc1cnc(N2CCCC(N3CCOCC3)C2)cc1Nc1ncc(-c2ccc(Cl)c(O[C@@H](C)Cn3cnnn3)c2)cn1 (stereo partly shown)
experimental-target: Full-length, GST-tagged, human CaMKIIδ (Homo sapiens, UniProt Q13557)
pIC50: 7.00 to 8.00
--
compound: COc1cc2c(cc1Nc1ncc(-c3ccc(C#N)c(O[C@@H](C)Cn4cnnn4)c3)cn1)C(=O)N(CC1COC1)C2
experimental-target: Full-length, GST-tagged, human CaMKIIδ (Homo sapiens, UniProt Q13557)
pIC50: 7.00 to 8.00

**Query** pIC50 lookup needed for `C[C@@H](Cn1cnnn1)Oc1cc(-c2cnc(Nc3cc4c(cc3Cl)CCNCC4)nc2)ccc1C#N` , thanks.
**Result** > 8.00

**Query** Next entry: `COc1cc2c(cc1Nc1ncc(-c3ccc(Cl)c(O[C@@H](C)Cn4cnnn4)c3)cn1)C(=O)N(C1CCC1)C2`
**Result** 7.00 to 8.00

---

# experimental-target: Full-length, GST-tagged, human CaMKIIδ (Homo sapiens, UniProt Q13557)
# Construct: Full-Length, Glutathione-S-Transferase(GST)-Tagged, Human CaMKIIδ was purchased from Carna Biosciences; purchased Carna Biosciences 02-111
# method-notes: CaMKIIδ binding assay (TR-FRET with BODIPY-labeled probe ligand)
# condition-details: CaMKIIδ binding assay, results of Table 2
measured-parameter: IC50

**Query** IC50 lookup needed for `C[C@@H](Cn1cnnn1)Oc1cc(-c2cnc(Nc3cc4c(cc3Cl)CCN(C3CCOCC3)CC4)nc2)ccc1C#N` , thanks.
**Result** < 10 nM

**Query** Next entry: `COc1ccc(N2CCC(N3CCOCC3)CC2)cc1Nc1ncc(-c2ccc(C#N)c(O[C@@H](C)COC(F)F)c2)cn1`
**Result** 10 to 100 nM

**Query** Next entry: `C[C@@H](Cn1cnnn1)Oc1cc(-c2cnc(Nc3cc4c(cc3Cl)CCN(C(=O)C(F)(F)F)CC4)nc2)ccc1C#N`
**Result** 10 to 100 nM

**Query** Next entry: `COC(=O)c1ccc(OC)c(Nc2ncc(-c3ccc(Cl)c(O[C@@H](C)Cn4cnnn4)c3)cn2)c1`
**Result** 10 to 100 nM

**Query** Next entry: `COc1ccc(C(=O)N2C[C@@H](C)N[C@@H](C)C2)cc1Nc1ncc(-c2ccc(Cl)c(O[C@@H](C)Cn3cnnn3)c2)cn1`
**Result** < 10 nM

**Query** Next entry: `COc1cc(C)c(C(=O)N2CCOCC2)cc1Nc1ncc(-c2ccc(C#N)c(O[C@@H](C)Cn3cnnn3)c2)cn1`
**Result** < 10 nM

**Query** Next entry: `C[C@@H](Cn1cnnn1)Oc1cc(-c2cnc(Nc3cc(N4CCC(N5CCOCC5)CC4)cnc3OCC(F)(F)F)nc2)ccc1Cl`
**Result** < 10 nM
